Target: T1, mouse IL-4R (mouse, UniProt P16382 26-233, limits assumed)
T1 sequence (looked up): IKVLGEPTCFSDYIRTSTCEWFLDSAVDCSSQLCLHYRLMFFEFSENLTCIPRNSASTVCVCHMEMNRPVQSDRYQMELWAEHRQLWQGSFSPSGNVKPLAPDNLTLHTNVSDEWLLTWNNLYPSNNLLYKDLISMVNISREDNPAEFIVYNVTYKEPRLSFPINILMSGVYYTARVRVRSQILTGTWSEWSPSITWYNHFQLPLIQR
Test: binding affinity test of Example 2 (method not restated)

binder	binding result
VAK10G6-7 (antibody, V domains shown, Apparently tested with mouse constant region (anti-mouse IgG capture/detection)) VH: QVQLVESGGGVVQPGRSLRLSCTASGFTFSSFGMHWVRQAPGRGLEWVAVISYDGSKKYYADSVKVRFTISRDNSKNTLYLQMNSLRVDDTAVYFCAKEGRTGNWFDPWGQGTLVAVSS VL: DIQMTQSPSSLSASVGDRVTITCRASQAINNYLAWFQQKPGKTPKSLIFATSSLQSGVPSRFSGTGSGTDFTLTISSLQPEDFATYYCQQYNSHPWTFGQGTKVEIR	no binding
VAB 11G8-1 (antibody, V domains shown, Apparently tested with mouse constant region (anti-mouse IgG capture/detection)) VH: QVQLVQSGAEVKKPGASVKVSCKASGYTFTNYGISWVRQAPGQGLEWMGWISVYNGHTNYAQKLQGRVTMTTDTSTSTAYMELRSLRSDDTAVYYCARGSGYDFDSWGQGTLVTVSS VL: AIQMTQSSSSLSASVGDRVTITCRASQAIRNALGWYQQKPGKAPKVLIYAASSLQSGIPSRFSGSGSGTDFTLTISSLQPEDFATYYCLQDYDYPYTFGQGTKLEIK	no binding
VAB 16F3-1 (antibody, V domains shown, Apparently tested with mouse constant region (anti-mouse IgG capture/detection)) VH: QVQLVQSGAEVKKPGASVKVSCKASGYTFNSYGISWVRQAPGQGLEWMGWIRTYNGNTNYAQKLQGRVTMTTDTSTSTAYMELRSLRSDDTAVYYCARDEARIVVAGTTPYYYGMDVWGQGTTVTVSS VL: DIQMTQSPSSVSASVGDRVTITCRASQDISIWLAWYQQSPGKAPKLLINVASRLQSGVPSRFSGSGSGTDFTLTINSLQPEDFVTYYCQQANSFPITFGQGTRLATK	no binding
